Provenance of the data: ChEMBL document CHEMBL4049446

- Tested on: Human immunodeficiency virus 1
- ASSAY INFO: Antiviral activity against saquinavir-resistant HIV1 NL4-3 harboring protease L10I/N37D/G48V/I54V/L63P/G73C/I84V/L90M mutant infected in human MT4 cells assessed as reduction in p24 Gag protein production after 7 days by chemiluminescent enzyme immunoassay
- Type: functional, cell-based
- CONDITION SET: Human immunodeficiency virus 1, NL4-3, MT4, 168 h
MEASURE NAME: pIC50
Give bare numbers, as −log10 of the molar value.

{"COMPOUND": "CC(C)CN(C[C@@H](O)[C@H](Cc1ccccc1)NC(=O)O[C@H]1C2CO[C@H]3OCC1C3C2)S(=O)(=O)c1ccc2nc(NC3CC3)sc2c1 (stereo partly drawn)", "MEAS VALUE": 10.52}

Now examine the next entry.
Recorded result, COC(=O)N[C@H](C(=O)N[C@@H](Cc1ccccc1)[C@@H](O)CN(Cc1ccc(-c2ccccn2)cc1)NC(=O)[C@@H](NC(=O)OC)C(C)(C)C)C(C)(C)C , pIC50: 6.29

====

- Test system: Human immunodeficiency virus 1
- ASSAY INFO: Antiviral activity against amprenavir-resistant HIV1 NL4-3 harboring protease L10F/V32I/L33F/M46L/I54M/A71V mutant infected in human MT4 cells assessed as reduction in p24 Gag protein production after 7 days by chemiluminescent enzyme immunoassay
- Format: functional, cell-based
- CONDITION SET: Human immunodeficiency virus 1, NL4-3, MT4, 168 h
Task for the reader: assign each of the following molecules its reported pIC50.
Answers are plain numbers, as −log10 of the molar value.

{"MOLECULE": "COC(=O)N[C@H](C(=O)N[C@@H](Cc1ccccc1)[C@@H](O)CN(Cc1ccc(-c2ccccn2)cc1)NC(=O)[C@@H](NC(=O)OC)C(C)(C)C)C(C)(C)C", "SYSTEM NAME": "Human immunodeficiency virus 1", "MEAS VALUE": 8.42}
{"MOLECULE": "CC(C)CN(C[C@@H](O)[C@H](Cc1ccccc1)NC(=O)O[C@H]1C2CO[C@H]3OCC1C3C2)S(=O)(=O)c1ccc2nc(NC3CC3)sc2c1 (stereo partly drawn)", "SYSTEM NAME": "Human immunodeficiency virus 1", "MEAS VALUE": 9.57}

Cc1cccc(C)c1OCC(=O)N[C@@H](Cc1ccccc1)[C@@H](O)C[C@H](Cc1ccccc1)NC(=O)[C@H](C(C)C)N1CCCNC1=O on Human immunodeficiency virus 1 gives pIC50 = 6.51
